# Test system: Trypomastigotes of T. cruzi (Dm28c-Luc)
# procedure_details: microbe, parasite or virus in culture
# Type: cell-based, Trypanosoma cruzi
# condition: Dm28c-Luc, 24 h treatment, mean ± SD; read-out: Anti-T. cruzi Activity Trypomastigotes IC50

{"smiles_entry": "Nc1nnc(-c2cnn(-c3ccc(Cl)cc3Cl)c2)s1", "IC50 (µM)": 21.7}

###

# Tested on: Intracellular amastigotes of T. cruzi (Dm28c-Luc)
# procedure_details: microbe, parasite or virus in culture
# Type: cell-based, Trypanosoma cruzi
Reported Intracellular Amastigotes SI (CC50 of Vero cells/IC50 of intracellular amastigotes) values follow for various compounds
recorded_metric: Intracellular Amastigotes SI (CC50 of Vero cells/IC50 of intracellular amastigotes)

{"compound": "O=C(Cn1ccnc1[N+](=O)[O-])NCc1ccccc1 [Bz, benznidazole, reference compound]", "experimental_result": ">158.23"}
{"compound": "Nc1nnc(-c2cnn(-c3cccc(Br)c3)c2N)s1", "experimental_result": ">7.14"}
{"compound": "Nc1nnc(-c2cnn(-c3ccc(Cl)c(Cl)c3)c2N)s1", "experimental_result": ">13.73"}

Just for reference, paper PMC11314410 is where these values come from.
